Let's look at some pKi data for Carboxypeptidase A1 (Homo sapiens) that I collected from the literature.
Just so you know, pKi here is -log10 of the concentration in molar units; reply with that number alone.

Completed entries (count: 3):
[[record]]
compound = "O=C(CBr)CC(Cc1ccccc1)C(=O)O (racemic)"
assay_readout = "pKi"
reported_measurement = 4.82

[[record]]
compound = "O=C(O)C[C@@H](Cc1ccccc1)C(=O)O"
assay_readout = "pKi"
reported_measurement = 6.35

[[record]]
compound = "O=C(C[C@@H](Cc1ccccc1)C(=O)O)C[N+](=O)[O-]"
assay_readout = "pKi"
reported_measurement = 6.80


Item O=CN(O)C[C@@H](Cc1ccccc1)C(=O)O was tested on Carboxypeptidase A1 (Homo sapiens); the reported pKi is 6.25

Item O=C(O)C(Cc1ccccc1)CN(O)C(=O)CCCc1ccccc1 (stereo not given) was tested on Carboxypeptidase A1 (Homo sapiens); the reported pKi is 5.94
